Test target: cyclophilin D (Homo sapiens (Human))
Sequence (P30405 30-207, species assumed): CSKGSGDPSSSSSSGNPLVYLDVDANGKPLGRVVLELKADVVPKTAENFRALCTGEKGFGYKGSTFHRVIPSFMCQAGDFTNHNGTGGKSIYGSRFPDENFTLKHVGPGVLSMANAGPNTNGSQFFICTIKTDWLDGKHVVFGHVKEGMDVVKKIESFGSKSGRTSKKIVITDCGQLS
Procedure text: Functional peptidyl prolyl isomerase (PPIase) spectrophotometric assay, cyclophilin D
Condition: second value of CypA/D cell; read-out: Ki CypD
Measured endpoint: pKi
pKi here: minus log base 10 of the concentration, concentration in moles per litre.

Query: Fill in: pKi of C[C@@H]1NC(=O)[C@H](CCCN)OC(=O)C(C)(C)/C=C/c2ccc3ccc(nc3c2)N(C)NC(=O)[C@@H]2CCCN(N2)C1=O [Compound (55)] is ___
Result: 5.72

Query: Further, for C[C@@H]1NC(=O)[C@@H](CC2CCCNC2)OC(=O)C(C)(C)/C=C/c2ccc3ccc(nc3c2)N(C)NC(=O)[C@@H]2CCCN(N2)C1=O (single isomer, unassigned) [Compound (31)] ?
Result: 6.74

Query: Further, for CNC(=O)c1ccc(CC2OC(=O)C(C)(C)/C=C/c3ccc4ccc(nc4c3)N(C)NC(=O)[C@@H]3CCCN(N3)C(=O)[C@H](C)NC2=O)cc1 (single isomer, unassigned) [Compound (39)] ?
Result: 7.44
